molecular target: full-length TDP-43 (TDP-43) (Homo sapiens)
Sequence (Q13148 whole entry): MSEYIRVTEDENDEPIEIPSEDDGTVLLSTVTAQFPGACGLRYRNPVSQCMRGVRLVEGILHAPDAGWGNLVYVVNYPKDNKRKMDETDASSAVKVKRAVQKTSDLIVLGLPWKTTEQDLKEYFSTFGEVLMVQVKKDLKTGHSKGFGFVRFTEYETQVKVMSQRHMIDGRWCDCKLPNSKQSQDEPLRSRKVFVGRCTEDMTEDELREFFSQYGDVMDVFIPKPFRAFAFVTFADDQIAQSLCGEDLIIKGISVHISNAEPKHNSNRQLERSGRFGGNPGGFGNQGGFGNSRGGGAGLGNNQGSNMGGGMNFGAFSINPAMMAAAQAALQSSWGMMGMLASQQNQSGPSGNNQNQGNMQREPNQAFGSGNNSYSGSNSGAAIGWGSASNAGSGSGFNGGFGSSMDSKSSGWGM
Reported metric: pKd
// returns pKd (minus log10 of molar concentration), number only

# molecule O=C(O[C@@H]1Cc2c(O)cc(O)cc2O[C@@H]1c1cc(O)c(O)c(O)c1)c1cc(O)c(O)c(O)c1 [epigallocatechin gallate] ; its pKd = 5.11
